PROCEDURE TEXT: activity coefficient (dimensionless); of the first substance listed, at infinite dilution; xn = mol fraction of the nth substance listed
TEST SETTINGS: 312.8 K; 101 kPa; Liquid; Chromatography; x1 = 0
MEASURED ATTRIBUTE: activity coefficient

MOLECULE: CCCCCCCC [octane] + CCCCCC[n+]1ccn(C)c1.FC(F)(F)C(F)(F)[P-](F)(F)(F)(C(F)(F)C(F)(F)F)C(F)(F)C(F)(F)F
activity coefficient: 12.2

The reported value for ClC(Cl)(Cl)Cl [tetrachloromethane] + CCCCCC[n+]1ccn(C)c1.FC(F)(F)C(F)(F)[P-](F)(F)(F)(C(F)(F)C(F)(F)F)C(F)(F)C(F)(F)F in terms of activity coefficient is 2.19

activity coefficient reported for this molecule CCCCCCC [heptane] + CCCCCC[n+]1ccn(C)c1.FC(F)(F)C(F)(F)[P-](F)(F)(F)(C(F)(F)C(F)(F)F)C(F)(F)C(F)(F)F : 8.84

Given item C#CCCCC [1-hexyne] + CCCCCC[n+]1ccn(C)c1.FC(F)(F)C(F)(F)[P-](F)(F)(F)(C(F)(F)C(F)(F)F)C(F)(F)C(F)(F)F , the value recorded as its activity coefficient is 1.94

====

PROCEDURE TEXT: activity coefficient (dimensionless); of the first substance listed, at infinite dilution; xn = mol fraction of the nth substance listed
TEST SETTINGS: 322.55 K; 101 kPa; Liquid; Chromatography; x1 = 0
Tag: 1 (yes) if measured activity coefficient is not below 4, 0 (no) if it is.

COMPOUND: CCCCCCCCCCC [undecane] + CCCCn1cc[n+](C)c1.O=S(=O)([N-]S(=O)(=O)C(F)(F)C(F)(F)F)C(F)(F)C(F)(F)F
CLASS NAME: 1 (yes)

Query: Decide: activity coefficient of C=CCCCC [hex-1-ene] + CCCCn1cc[n+](C)c1.O=S(=O)([N-]S(=O)(=O)C(F)(F)C(F)(F)F)C(F)(F)C(F)(F)F >= 4?
Reply: 1 (yes)

Query: Kindly determine if activity coefficient recorded for CCOCC [diethyl ether] + CCCCn1cc[n+](C)c1.O=S(=O)([N-]S(=O)(=O)C(F)(F)C(F)(F)F)C(F)(F)C(F)(F)F is above or exactly 4.
Reply: 0 (no)

Query: Does activity coefficient meet or surpass 4 for Cc1ccccc1 [toluene] + CCCCn1cc[n+](C)c1.O=S(=O)([N-]S(=O)(=O)C(F)(F)C(F)(F)F)C(F)(F)C(F)(F)F ?
Reply: 0 (no)

Query: For this compound, is measured activity coefficient 4 or higher? ClCCl [dichloromethane] + CCCCn1cc[n+](C)c1.O=S(=O)([N-]S(=O)(=O)C(F)(F)C(F)(F)F)C(F)(F)C(F)(F)F
Reply: 0 (no)

Query: Does the compound c1ccccc1 [benzene] + CCCCn1cc[n+](C)c1.O=S(=O)([N-]S(=O)(=O)C(F)(F)C(F)(F)F)C(F)(F)C(F)(F)F have recorded activity coefficient that is 4 or more?
Reply: 0 (no)

Query: Determine whether measured activity coefficient meets or exceeds 4 for C#CCCCC [1-hexyne] + CCCCn1cc[n+](C)c1.O=S(=O)([N-]S(=O)(=O)C(F)(F)C(F)(F)F)C(F)(F)C(F)(F)F
Reply: 0 (no)

Query: Is reported activity coefficient greater than or equal to 4 here: C1CCCCC1 [cyclohexane] + CCCCn1cc[n+](C)c1.O=S(=O)([N-]S(=O)(=O)C(F)(F)C(F)(F)F)C(F)(F)C(F)(F)F
Reply: 1 (yes)

Query: For this compound, is measured activity coefficient 4 or higher? CCCC(C)=O [pentan-2-one] + CCCCn1cc[n+](C)c1.O=S(=O)([N-]S(=O)(=O)C(F)(F)C(F)(F)F)C(F)(F)C(F)(F)F
Reply: 0 (no)

Query: Does CCCCCC [hexane] + CCCCn1cc[n+](C)c1.O=S(=O)([N-]S(=O)(=O)C(F)(F)C(F)(F)F)C(F)(F)C(F)(F)F have a reported activity coefficient of at least 4?
Reply: 1 (yes)

Query: Given the entry CC1CCCCC1 [methylcyclohexane] + CCCCn1cc[n+](C)c1.O=S(=O)([N-]S(=O)(=O)C(F)(F)C(F)(F)F)C(F)(F)C(F)(F)F , answer whether its activity coefficient meets or surpasses 4.
Reply: 1 (yes)

Query: Decide: is the reported value of activity coefficient for CCN(CC)CC [triethylamine] + CCCCn1cc[n+](C)c1.O=S(=O)([N-]S(=O)(=O)C(F)(F)C(F)(F)F)C(F)(F)C(F)(F)F equal to or greater than 4?
Reply: 0 (no)

Query: Determine whether measured activity coefficient meets or exceeds 4 for CC(C)OC(C)C [diisopropyl ether] + CCCCn1cc[n+](C)c1.O=S(=O)([N-]S(=O)(=O)C(F)(F)C(F)(F)F)C(F)(F)C(F)(F)F
Reply: 0 (no)

Where do these numbers come from? They come from the NIST ThermoML archive (doi:10.1021/je200195q).
